Organism: Mus musculus
assay_procedure: Cytotoxicity against Balb/c mouse T cells assessed as decrease in cell viability at 100 uM after 48 hrs by MTT assay
Type: toxicity, cell-based
measured_quantity: Activity

* CC(=O)Oc1cc(C)c2c(c1C)C[C@H]([C@@H](C)C(=O)OCc1cn(-c3cccc([N+](=O)[O-])c3)nn1)CC2 | Non-Toxic
* CC(=O)Oc1cc(C)c2c(c1C)C[C@H]([C@@H](C)C(=O)OCc1cn(-c3ccc(NC(=O)c4ccccc4)cc3)nn1)CC2 | Non-Toxic
* CC(=O)Oc1cc(C)c2c(c1C)C[C@H]([C@@H](C)C(=O)OCc1cn(-c3ccc4c(c3)OCO4)nn1)CC2 | Non-Toxic
* COc1cc(-n2cc(COC(=O)[C@H](C)[C@@H]3CCc4c(C)cc(OC(C)=O)c(C)c4C3)nn2)cc(OC)c1OC | Non-Toxic
